Reported pKi values follow for various compounds
Biological target: Norepinephrine transporter (Rattus norvegicus, UniProt Q9WTR4)
Sequence (Q9WTR4 whole entry): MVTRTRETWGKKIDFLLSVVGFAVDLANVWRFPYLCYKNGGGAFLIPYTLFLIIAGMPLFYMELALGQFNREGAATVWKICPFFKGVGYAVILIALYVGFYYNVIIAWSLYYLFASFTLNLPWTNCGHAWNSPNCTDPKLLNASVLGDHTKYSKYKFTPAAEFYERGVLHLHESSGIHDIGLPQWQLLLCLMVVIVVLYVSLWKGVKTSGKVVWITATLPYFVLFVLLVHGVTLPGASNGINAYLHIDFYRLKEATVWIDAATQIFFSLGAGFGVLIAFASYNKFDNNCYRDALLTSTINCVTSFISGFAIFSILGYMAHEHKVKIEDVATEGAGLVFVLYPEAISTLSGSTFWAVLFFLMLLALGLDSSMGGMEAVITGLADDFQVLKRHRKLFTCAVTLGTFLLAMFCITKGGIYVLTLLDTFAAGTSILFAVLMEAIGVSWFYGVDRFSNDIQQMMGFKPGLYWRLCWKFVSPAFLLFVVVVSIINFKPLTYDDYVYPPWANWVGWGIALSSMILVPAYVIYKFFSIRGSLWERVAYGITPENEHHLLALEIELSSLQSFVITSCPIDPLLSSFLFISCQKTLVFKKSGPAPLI
Note on pKi: it is the negative log10 of concentration, concentration in mol/L.

Examples with answers:
CCC(=O)C1C2CCC(CC1c1ccc3ccccc3c1)N2 (centres undefined); 8.69
CCC(=O)C1C(c2ccc3c(C(C)=O)c(OC)ccc3c2)CC2CCC1N2C (centres undefined); 6.30
CCC(=O)C1C(c2ccc3c(CC)c(OC)ccc3c2)CC2CCC1N2C (centres undefined); 5.47

Let us move to another entry and its pKi.
INPUT: I have this compound here, CCC(=O)C1C(c2ccc3c(I)c(OC)ccc3c2)CC2CCC1N2C (centres undefined) , and I need its recorded pKi.
OUTPUT: 6.11

---

Reported pKi values follow for various compounds
Target: Norepinephrine transporter (Rattus norvegicus)
Note on pKi: it is the negative log10 of concentration, concentration in mol/L.

CCC(=O)C1C(c2ccc(CC)c3ccccc23)CC2CCC1N2C (stereo unspecified); 5.32
CCC(=O)C1C(c2ccc(C)c3ccccc23)CC2CCC1N2C (stereo unspecified); 6.79
CCC(=O)C1C(c2ccc3ccccc3c2)CC2CCC1N2C (stereo in doubt); 7.17
CC(C)C(=O)C1C(c2ccc3ccccc3c2)CC2CCC1N2C (stereo unspecified); 7.42

INPUT: I have this compound here, CCC(=O)C1C(c2ccc3cc(CC)ccc3c2)CC2CCC1N2C (stereo unspecified) , and I need its recorded pKi.
OUTPUT: 7.56

INPUT: Now this one: CCC(=O)C1C(c2ccc(C)cc2)CC2CCC1N2C (stereo unspecified)
OUTPUT: 7.19

INPUT: Now this one: C=C(C)c1c(OC)ccc2cc(C3CC4CCC(C3C(=O)CC)N4C)ccc12 (stereo unspecified)
OUTPUT: 5.63

INPUT: Now this one: CCC(=O)C1C(c2cccc3ccccc23)CC2CCC1N2C (stereo unspecified)
OUTPUT: 7.31

INPUT: Now this one: CC(=O)C1C(c2cccc3ccccc23)CC2CCC1N2C (stereo in doubt; form 2)
OUTPUT: 6.78

INPUT: Now this one: CC(=O)C1C(c2ccc3ccccc3c2)CC2CCC1N2C (stereo unspecified)
OUTPUT: 8.31

---

Target: Monoamine transporters; serotonin & dopamine (Rattus norvegicus) (UniProt P31652+P23977)
Sequence (P23977 whole entry, looked up): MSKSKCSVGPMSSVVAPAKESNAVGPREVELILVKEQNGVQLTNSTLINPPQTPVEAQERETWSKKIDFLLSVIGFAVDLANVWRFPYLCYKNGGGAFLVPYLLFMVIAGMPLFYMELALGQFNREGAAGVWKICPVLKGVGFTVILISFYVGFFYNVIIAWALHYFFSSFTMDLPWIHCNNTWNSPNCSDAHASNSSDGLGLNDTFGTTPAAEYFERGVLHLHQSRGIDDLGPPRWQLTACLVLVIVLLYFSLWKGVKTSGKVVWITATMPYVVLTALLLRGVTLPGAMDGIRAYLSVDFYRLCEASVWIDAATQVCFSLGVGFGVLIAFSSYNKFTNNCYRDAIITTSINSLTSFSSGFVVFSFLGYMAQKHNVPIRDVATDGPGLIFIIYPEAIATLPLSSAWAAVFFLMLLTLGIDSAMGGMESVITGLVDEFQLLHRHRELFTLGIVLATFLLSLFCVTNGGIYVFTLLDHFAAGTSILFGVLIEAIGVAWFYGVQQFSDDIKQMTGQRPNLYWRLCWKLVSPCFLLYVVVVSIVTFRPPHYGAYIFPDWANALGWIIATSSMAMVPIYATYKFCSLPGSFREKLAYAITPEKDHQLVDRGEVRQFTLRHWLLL
Sequence (P31652 whole entry, looked up): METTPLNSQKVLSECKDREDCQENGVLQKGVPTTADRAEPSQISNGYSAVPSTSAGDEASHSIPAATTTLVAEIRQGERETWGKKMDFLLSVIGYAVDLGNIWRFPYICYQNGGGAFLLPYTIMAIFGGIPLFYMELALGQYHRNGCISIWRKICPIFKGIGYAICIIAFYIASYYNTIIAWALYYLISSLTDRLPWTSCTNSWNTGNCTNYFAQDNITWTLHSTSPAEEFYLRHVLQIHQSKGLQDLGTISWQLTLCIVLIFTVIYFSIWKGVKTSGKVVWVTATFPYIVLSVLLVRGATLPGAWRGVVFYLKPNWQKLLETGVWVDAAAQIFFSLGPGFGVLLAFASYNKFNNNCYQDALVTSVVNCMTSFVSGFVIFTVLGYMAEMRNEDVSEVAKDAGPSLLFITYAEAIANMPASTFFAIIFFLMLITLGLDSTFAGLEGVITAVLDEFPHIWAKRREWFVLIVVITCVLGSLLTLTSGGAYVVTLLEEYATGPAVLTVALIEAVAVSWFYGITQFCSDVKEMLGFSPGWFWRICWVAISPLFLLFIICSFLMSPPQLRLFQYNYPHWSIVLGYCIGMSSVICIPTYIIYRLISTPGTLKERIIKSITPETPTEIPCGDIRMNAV
Assay: SERT/DAT (serotonin transporter/dopamine transporter) binding potency ratio
Assay type: protein assay
Hi! Could you tag entries with Potency ratio below 0.5 as 1, and those at or above as -1? Much appreciated.

Previously resolved entries follow.
CC(=O)C1C(c2cccc3ccccc23)CC2CCC1N2C (stereo in doubt; form 1); 1
CC(=O)C1C(c2cccc3ccccc23)CC2CCC1N2C (stereo in doubt; form 2); 1
CCC(=O)C1C(c2ccc3cc(OC)ccc3c2)CC2CCC1N2C (configuration not stated); 1
CC(C)C(=O)C1C(c2ccc3ccccc3c2)CC2CCC1N2C (configuration not stated); 1
CCC(=O)C1C(c2ccc3c([N+](=O)[O-])c(OC)ccc3c2)CC2CCC1N2C (configuration not stated); -1

INPUT: # strict comparison: is reported Potency ratio < 0.5? input = CCC(=O)C1C(c2ccc(CC)c3ccccc23)CC2CCC1N2C (configuration not stated)
OUTPUT: -1

INPUT: Now this one: CCC(=O)C1C2CCC(CC1c1ccc3ccccc3c1)N2 (configuration not stated)
OUTPUT: 1

INPUT: Now this one: CCC(=O)C1C(c2ccc(C)c3ccccc23)CC2CCC1N2C (configuration not stated)
OUTPUT: -1

---

Molecular target: Sodium-dependent serotonin transporter (Rattus norvegicus, UniProt P31652)
Assay: Affinity for the displacement of [3H]paroxetine binding to serotonin transporter (SERT) in rat frontal cortex membranes
Type: cell membranes, Membrane
pKi: −log10 of the molar value.
Use 1 when the recorded pKi is no lower than 9; use -1 when it is lower.

CC(C)C(=O)C1C(c2ccc3ccccc3c2)CC2CCC1N2C (configuration not stated); -1

INPUT: Given the entry CCC(=O)C1C(c2ccc3ccccc3c2)CC2CCC1N2C (stereo in doubt) , answer whether its pKi meets or surpasses 9.
OUTPUT: -1

INPUT: Now this one: CCC(=O)C1C(c2ccc3cc(OC)ccc3c2)CC2CCC1N2C (configuration not stated)
OUTPUT: -1

INPUT: Now this one: CCC(=O)C1C(c2ccc(C)c3ccccc23)CC2CCC1N2C (configuration not stated)
OUTPUT: -1

---

// Sodium-dependent serotonin transporter (Rattus norvegicus, UniProt P31652) pKi records
Note on pKi: it is the negative log10 of concentration, concentration in mol/L.

CCC(=O)C1C(c2ccc(CC)c3ccccc23)CC2CCC1N2C (stereo not given); 6.76
CCC(=O)C1C(c2ccc3c([N+](=O)[O-])c(OC)ccc3c2)CC2CCC1N2C (stereo not given); 7.82
CC(=O)C1C(c2cccc3ccccc23)CC2CCC1N2C (stereo in doubt; form 1); 6.66
CCC(=O)C1C(c2ccc3c(C(C)=O)c(OC)ccc3c2)CC2CCC1N2C (stereo not given); 7.80

Let us move to another entry and its pKi.
INPUT: I have this compound here, C=C(C)c1c(OC)ccc2cc(C3CC4CCC(C3C(=O)CC)N4C)ccc12 (stereo not given) , and I need its recorded pKi.
OUTPUT: 7.06

---

Target: Monoamine transporters; serotonin & dopamine (Rattus norvegicus) (UniProt P31652+P23977)
Experiment: SERT/DAT (serotonin transporter/dopamine transporter) binding potency ratio
Format: protein assay
Reported Potency ratio values follow for various compounds
Please reply with the number alone, leaving off any unit.

CCC(=O)C1C(c2ccc3ccc(I)cc3c2)CC2CCC1N2C (centres undefined); 0.5
CCC(=O)C1C(c2ccc3cc(CC)ccc3c2)CC2CCC1N2C (centres undefined); 0.4
CCC(=O)C1C(c2ccc(C)cc2)CC2CCC1N2C (centres undefined); 0.06
CCC(=O)C1C(c2ccc3ccccc3c2)CC2CCC1N2C (stereo in doubt); 0.15
CCC(=O)C1C(c2ccc3cc(I)ccc3c2)CC2CCC1N2C (centres undefined); 1

INPUT: Requested read-out Potency ratio, target or system Monoamine transporters; serotonin & dopamine (Rattus norvegicus) (UniProt P31652+P23977), entry CCC(=O)C1C(c2ccc(C(C)C)c3ccccc23)CC2CCC1N2C (centres undefined)
OUTPUT: 2

INPUT: Now this one: C=C(C)c1c(OC)ccc2cc(C3CC4CCC(C3C(=O)CC)N4C)ccc12 (centres undefined)
OUTPUT: 0.5

INPUT: Now this one: CCC(=O)C1C(c2ccc3c(CC)c(OC)ccc3c2)CC2CCC1N2C (centres undefined)
OUTPUT: 4.1

INPUT: Now this one: CCC(=O)C1C(c2ccc3c(C(C)=O)c(OC)ccc3c2)CC2CCC1N2C (centres undefined)
OUTPUT: 0.8

INPUT: Now this one: CCC(=O)C1C(c2ccc3c(I)c(OC)ccc3c2)CC2CCC1N2C (centres undefined)
OUTPUT: 0.6

---

Molecular target: Sodium-dependent serotonin transporter (Rattus norvegicus)
Reported pKi values follow for various compounds
Note on pKi: it is the negative log10 of concentration, concentration in mol/L.

Examples with answers:
CCC(=O)C1C(c2ccc3cc(I)ccc3c2)CC2CCC1N2C (stereo not drawn); 9.43
CCC(=O)C1C2CCC(CC1c1ccc3ccccc3c1)N2 (stereo not drawn); 9.64
CCC(=O)C1C(c2ccc3cc(CC)ccc3c2)CC2CCC1N2C (stereo not drawn); 9.42
CCC(=O)C1C(c2ccc(C(C)C)c3ccccc23)CC2CCC1N2C (stereo not drawn); 6.87
CCC(=O)C1C(c2ccc3cc(C(C)C)ccc3c2)CC2CCC1N2C (stereo not drawn); 8.71

INPUT: I have this compound here, CCC(=O)C1C(c2ccc3c(I)c(OC)ccc3c2)CC2CCC1N2C (stereo not drawn) , and I need its recorded pKi.
OUTPUT: 8.64

INPUT: Now this one: CCC(=O)C1C(c2ccc3c(CC)c(OC)ccc3c2)CC2CCC1N2C (stereo not drawn)
OUTPUT: 8.12

INPUT: Now this one: CCC(=O)C1C(c2ccc3ccc(I)cc3c2)CC2CCC1N2C (stereo not drawn)
OUTPUT: 9.33

---

Biological target: Monoamine transporters; serotonin & dopamine (Rattus norvegicus) (UniProt P31652+P23977)
Experiment: SERT/DAT (serotonin transporter/dopamine transporter) binding potency ratio
Format: protein assay
quantity measured: Potency ratio
Please reply with the number alone, leaving off any unit.

CCC(=O)C1C(c2ccc3cc(C(C)C)ccc3c2)CC2CCC1N2C (centres undefined); 0.2
CC(=O)C1C(c2ccc3ccccc3c2)CC2CCC1N2C (centres undefined); 1.2
CCC(=O)C1C(c2ccc3ccccc3c2)CC2CCC1N2C (stereo in doubt; 8); 0.3

INPUT: I have this compound here, CCC(=O)C1C(c2cccc3ccccc23)CC2CCC1N2C (centres undefined) , and I need its recorded Potency ratio.
OUTPUT: 0.3
